Assay: Pharmacokinetic parameters in male Sprague Dawley rats (intravenous and oral administration)
Assay type: in vivo
Details: intravenous administration, rat plasma; dose per compound (mg/kg)
Counter-ions that a name gives are not always drawn.
measured.endpoint: AUC (ng·h/mL)

1) CN(C)C(=O)c1cc(S(=O)(=O)NC(=O)Nc2c3c(cc4c2CCC4)CCC3)nn1C [Example 169, sodium salt] | 3389.9
2) CC(C)c1cc(F)cc(-c2cccc(C#N)c2)c1NC(=O)NS(=O)(=O)c1cc(CN(C)C)n(C)n1 [Example 66] | 375.4
3) CC(C)c1cccc(C(C)C)c1NC(=O)NS(=O)(=O)c1cc(C(=O)N(C)C)n(C)n1 [Example 167, sodium salt] | 333.7
4) CC(C)n1nc(S(=O)(=O)NC(=O)Nc2c3c(cc4c2CCC4)CCC3)cc1C(=O)N1CCC1 [Example 131, ammonium salt] | 302.7

====

Assay: Pharmacokinetic parameters in male Sprague Dawley rats (intravenous and oral administration)
Format: in vivo
Conditions: male, Sprague Dawley; intravenous administration, rat plasma; dose per compound (mg/kg); read-out: AUC
measured.endpoint: AUC (ng·h/mL)

1) CN1CC[C@H]1Cn1ccc(S(=O)(=O)NC(=O)Nc2c3c(cc4c2CCC4)CCC3)n1 [Example 20] | 11300
2) CN(C)CC(C)(C)n1ccc(S(=O)(=O)NC(=O)Nc2c3c(cc4c2CCC4)CCC3)n1 [Example 17] | 15800
3) CN(C)CCn1ccc(S(=O)(=O)NC(=O)Nc2c3c(cc4c2CCC4)CCC3)n1 [Example 7] | 6420

====

Test: Pharmacokinetic parameters in male Sprague Dawley rats (intravenous and oral administration)
Assay type: in vivo
Conditions: male, Sprague Dawley; oral administration, rat plasma; dose per compound (mg/kg); read-out: AUC
measured.endpoint: AUC (ng·h/mL)

1) CN(C)CC(C)(C)n1ccc(S(=O)(=O)NC(=O)Nc2c3c(cc4c2CCC4)CCC3)n1 | 8760
2) CN(C)CCn1ccc(S(=O)(=O)NC(=O)Nc2c3c(cc4c2CCC4)CCC3)n1 | 15200

====

Assay: Pharmacokinetic parameters in male Sprague Dawley rats (intravenous and oral administration)
Assay type: in vivo
Details: intravenous administration, rat plasma; dose per compound (mg/kg)
Counter-ions that a name gives are not always drawn.
List of Vdss values.
measured.endpoint: Vdss (L/kg)

1. CN(CCO)C(=O)c1cc(S(=O)(=O)NC(=O)Nc2c3c(cc4c2CCC4)CCC3)nn1C [Example 176, ammonium salt] | 2.37
2. CN(CCO)Cc1cc(S(=O)(=O)NC(=O)Nc2c3c(cc4c2CCC4)CCC3)nn1C | 1.9
3. CN(C)C(=O)c1cc(S(=O)(=O)NC(=O)Nc2c3c(cc4c2CCC4)CCC3)nn1C [Example 169, sodium salt] | 17.78
4. CC(C)c1cccc(C(C)C)c1NC(=O)NS(=O)(=O)c1cc(C(=O)N(C)C)n(C)n1 [Example 167, sodium salt] | 0.99

====

Target: NLRP3 (Homo sapiens, UniProt Q96P20)
Sequence (Q96P20 whole entry): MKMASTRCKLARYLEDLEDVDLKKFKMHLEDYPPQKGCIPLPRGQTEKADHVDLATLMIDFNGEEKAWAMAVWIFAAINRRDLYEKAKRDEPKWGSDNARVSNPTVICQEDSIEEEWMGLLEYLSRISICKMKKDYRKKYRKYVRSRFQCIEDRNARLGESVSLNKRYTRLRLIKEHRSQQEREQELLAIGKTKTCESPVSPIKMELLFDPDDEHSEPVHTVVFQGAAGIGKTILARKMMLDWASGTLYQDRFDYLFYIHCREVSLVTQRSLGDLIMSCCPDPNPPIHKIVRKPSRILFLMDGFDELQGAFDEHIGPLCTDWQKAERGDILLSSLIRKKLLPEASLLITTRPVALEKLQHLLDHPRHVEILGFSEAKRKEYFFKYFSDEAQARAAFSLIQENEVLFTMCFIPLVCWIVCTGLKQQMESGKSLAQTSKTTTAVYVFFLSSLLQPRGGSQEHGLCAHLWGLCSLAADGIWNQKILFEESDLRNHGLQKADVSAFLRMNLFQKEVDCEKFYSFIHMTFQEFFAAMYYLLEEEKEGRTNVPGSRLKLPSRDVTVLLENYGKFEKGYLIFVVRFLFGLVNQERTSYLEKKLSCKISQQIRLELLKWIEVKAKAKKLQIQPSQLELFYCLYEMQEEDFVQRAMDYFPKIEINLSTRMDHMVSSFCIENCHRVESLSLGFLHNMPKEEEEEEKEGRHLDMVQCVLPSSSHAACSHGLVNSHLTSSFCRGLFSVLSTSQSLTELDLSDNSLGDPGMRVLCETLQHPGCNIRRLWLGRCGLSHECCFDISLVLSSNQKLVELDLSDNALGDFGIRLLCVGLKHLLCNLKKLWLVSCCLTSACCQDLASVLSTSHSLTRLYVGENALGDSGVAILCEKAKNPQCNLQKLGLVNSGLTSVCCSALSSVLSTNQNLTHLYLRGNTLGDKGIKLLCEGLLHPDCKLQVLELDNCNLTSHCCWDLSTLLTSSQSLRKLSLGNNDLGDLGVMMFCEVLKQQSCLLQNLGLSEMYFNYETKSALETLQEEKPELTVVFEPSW
Assay: THP-1 cells pyroptosis assay
Type: cell-based
Design: Seed THP-1 cells (25,000 cells/well) containing 1.0 μg/ml LPS; host or cells: THP-1 cells, LPS-primed, nigericin-stimulated
Conditions: THP-1 cells, 1.0 μg/ml LPS, compound 3 hrs, nigericin 5 μM 1 hr, resazurin readout; read-out: THP IC50
Source text: […]
pIC50: −log10 of the molar value. Where a name gives a salt, the structure may show the parent alone.
measured.endpoint: pIC50

1. CC(C)c1cc(Cl)cc(C(C)C)c1NC(=O)NS(=O)(=O)c1ccn(C(C)(C)CN(C)C)n1 | > 5.59
2. CNCC(C)(C)n1ccc(S(=O)(=O)NC(=O)Nc2c(-c3ccnc(OC)c3)ccc3c2CCC3)n1 [Example 191, sodium salt] | > 7.40
3. CC(C)c1cc(F)cc(C(C)C)c1NC(=O)NS(=O)(=O)c1ccn(C(C)(C)CN(C)C)n1 | > 5.59
4. CC(C)c1cc(F)cc(C(C)C)c1NC(=O)NS(=O)(=O)c1ccn(CCN(C)C)n1 | > 5.00
5. O=C(Nc1c2c(cc3c1CCC3)CCC2)NS(=O)(=O)c1ccn(CCN2CCCC2)n1 [Example 3, sodium salt] | > 6.19
6. CN(C)CCn1cnc(S(=O)(=O)NC(=O)Nc2c3c(cc4c2CCC4)CCC3)c1 | > 5.59
7. CC(C)NC(=O)c1cc(S(=O)(=O)NC(=O)Nc2c(C(C)C)cccc2C(C)C)nn1C | > 5.00
8. O=C(Nc1c2c(cc3c1CCC3)CCC2)NS(=O)(=O)c1ccn(Cc2ncco2)n1 | > 6.80
9. CN(C)C1(Cn2ccc(S(=O)(=O)NC(=O)Nc3c4c(cc5c3CCC5)CCC4)n2)CC1 | > 6.19
10. CN(CCO)Cc1cc(S(=O)(=O)NC(=O)Nc2c3c(cc4c2CCC4)CCC3)nn1C | > 6.80
